// provenance: patent US9751837B2

test: Solubility in fasted-state simulated colonic fluid (FaSSCoF) at pH 6.5; assay type: physicochemical; conditions: 25 °C, pH 6.5, fassgf or other biorelevant, thermodynamic from solid, pH 6.5 FaSSCoF Solubility (mg/mL) Run 1
observable: solubility thermodynamic at 24 h (µg/mL)

In [3]: df
Out[3]:
                                smiles_code  readout_unit  result_number
0  COc1c(NC(=O)Nc2ccc(Oc3ccnc(Nc4ccc(C(=O)NCCN5CCN(C)CC5)c(N(C)C)c4)c3)c3ccccc23)cc(C(C)(C)C)cc1NS(C)(=O)=O         µg/mL              9
1  COc1cc(Nc2nccc(Oc3ccc(NC(=O)Nc4cc(C(C)(C)C)cc(NS(C)(=O)=O)c4OC)c4ccccc34)n2)ccc1C(=O)NCCC1CCN(C)CC1         µg/mL             47
2  COc1cc(Nc2cc(Oc3ccc(NC(=O)Nc4cc(NS(C)(=O)=O)cc(C(C)(C)C)c4)c4ccccc34)ccn2)ccc1C(=O)NCCCN1CCN(C)CC1         µg/mL             23
3  COc1cc(Nc2cc(Oc3ccc(NC(=O)Nc4cc(C(C)(C)C)cc(NS(C)(=O)=O)c4OC)c4ccccc34)ccn2)cc(OC)c1C(=O)NCCN(C)C         µg/mL            222
4  COc1cc(Nc2cc(Oc3ccc(NC(=O)Nc4cc(C(C)(C)C)cc(C(N)=O)c4OC)c4ccccc34)ccn2)ccc1C(=O)O         µg/mL              6
5  COc1cc(Nc2cc(Oc3ccc(NC(=O)Nc4cc(C(C)(C)C)cc(NS(C)(=O)=O)c4OC)c4ccccc34)ccn2)ccc1C(=O)NCCO         µg/mL              8
